system: Mus musculus; assay: Clastogenic effect on C57BL mouse assessed as mitotic index in bone marrow cells at 100 mg/kg, ip after 48 hrs; assay type: functional; settings: route intraperitoneal
Please use MET whenever Activity is not below 10%, and NOT MET whenever it is.

Textbook exercise: given the entry COP(=O)(CNC1(C(=O)O)CCCCC1)OC , state whether its Activity is greater than or equal to 10%. NOT MET

Decide: is the reported value of Activity for COP(=O)(CNC1(C(=O)O)CCCCCCC1)OC equal to or greater than 10%? NOT MET

Has COP(=O)(CNC1(C(=O)O)CCCC1)OC a recorded Activity greater than or equal to 10%? NOT MET

State whether the measured Activity reaches 10%, counting equality as reaching it, for COP(=O)(CNC1(C(=O)O)CCCCCC1)OC MET

Quick check, Activity >= 10%? COP(=O)(CNC1(C(=O)O)CCCCCCCCCCC1)OC MET
